measured-endpoint: Ki
Answer format reminder: number followed by unit.

Input: Print Alpha-2C adrenergic receptor (Rattus norvegicus) Ki for Cc1cccc2ccc(N3CCNCC3)nc12 [QUIPAZINE,8-Me] .
Output: 3.8 µM

###

Answer each item with its documented Ki.
target: UniProtKB P35563
Sequence (P35563 whole entry): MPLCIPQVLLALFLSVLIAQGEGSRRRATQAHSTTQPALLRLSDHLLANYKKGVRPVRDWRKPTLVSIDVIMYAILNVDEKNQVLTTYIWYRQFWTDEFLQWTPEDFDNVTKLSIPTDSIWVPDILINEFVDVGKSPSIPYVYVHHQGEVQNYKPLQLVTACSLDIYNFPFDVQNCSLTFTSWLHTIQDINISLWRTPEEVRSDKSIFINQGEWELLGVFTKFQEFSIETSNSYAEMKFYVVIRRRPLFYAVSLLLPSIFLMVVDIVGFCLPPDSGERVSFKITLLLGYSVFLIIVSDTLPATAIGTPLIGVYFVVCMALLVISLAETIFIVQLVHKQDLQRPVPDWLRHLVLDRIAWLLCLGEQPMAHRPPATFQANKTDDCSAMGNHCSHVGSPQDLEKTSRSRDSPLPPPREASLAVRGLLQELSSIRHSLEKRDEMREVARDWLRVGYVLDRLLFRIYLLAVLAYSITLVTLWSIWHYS
Dear colleague, please return just the value in nM, with no unit written.

Input: Please supply the value of reported Ki for the item `COc1cccc2ccc(N3CCNCC3)nc12`
Output: 360

Input: Please supply the value of reported Ki for the item `CCCN1CCN(c2ccc3ccccc3n2)CC1`
Output: 15

Input: Please supply the value of reported Ki for the item `c1cnc(N2CCNCC2)nc1`
Output: 4000

Input: Please supply the value of reported Ki for the item `c1ccc(N2CCNCC2)cc1`
Output: 430
